Where these numbers come from: PubChem BioAssay AID2060355

- Tested on: 485368-065-R4-J2-PDC spheroids with HUVEC/MSC, viability;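 note: spheroids exposed to compounds for seven days before readout; 100% = DMSO vehicle control wells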
- test-details: Anticancer human tumor 485368-065-R4-J2-PDC patient-derived pancreatic carcinoma cell line growth inhibition [TAK]
- measurement-context: second compound 0.949 µM; first compound 0.01 µM; stronger effect = lower value
Binarize viability, T/C at 70%; below is class 1, at or above is class 0.

{"columns": ["compound", "label-class"],
 "data": [
  ["COC1CC2CCC(C)C(O)(O2)C(=O)C(=O)N2CCCCC2C(=O)OC(C(C)CC2CCC(OCCO)C(OC)C2)CC(=O)C(C)C=C(C)C(O)C(OC)C(=O)C(C)CC(C)C=CC=CC=C1C (stereo not given) + CC(C)NCC(C(=O)N1CCN(c2ncnc3c2C(C)CC3O)CC1)c1ccc(Cl)cc1", "class 0"],
  ["CC(C)n1nc(-c2ccc3oc(N)nc3c2)c2c(N)ncnc21 + CC(C)NCC(C(=O)N1CCN(c2ncnc3c2C(C)CC3O)CC1)c1ccc(Cl)cc1", "class 1"],
  ["CC(C)CC(NC(=O)C(Cc1ccccc1)NC(=O)c1cnccn1)B(O)O (stereo not given) + CC(C)NCC(C(=O)N1CCN(c2ncnc3c2C(C)CC3O)CC1)c1ccc(Cl)cc1", "class 1"],
  ["COc1c(OCCCN2CCOCC2)ccc2c3n(c(=NC(=O)c4cnc(N)nc4)nc12)CCN3 + CC(C)NCC(C(=O)N1CCN(c2ncnc3c2C(C)CC3O)CC1)c1ccc(Cl)cc1", "class 0"]
]}

Now for another entry.
Ask: # TODO verify viability, T/C < 70% strictly for this compound: CC(C)CC(NC(=O)CNC(=O)c1cc(Cl)ccc1Cl)B1OC(=O)CC(CC(=O)O)(C(=O)O)O1 (stereo not given) + CC(C)NCC(C(=O)N1CCN(c2ncnc3c2C(C)CC3O)CC1)c1ccc(Cl)cc1
Result: class 0
